- Assayed Target: human platelet aggregation (Homo sapiens, UniProt P05106+P08514)
- Sequence (P08514 32-1039): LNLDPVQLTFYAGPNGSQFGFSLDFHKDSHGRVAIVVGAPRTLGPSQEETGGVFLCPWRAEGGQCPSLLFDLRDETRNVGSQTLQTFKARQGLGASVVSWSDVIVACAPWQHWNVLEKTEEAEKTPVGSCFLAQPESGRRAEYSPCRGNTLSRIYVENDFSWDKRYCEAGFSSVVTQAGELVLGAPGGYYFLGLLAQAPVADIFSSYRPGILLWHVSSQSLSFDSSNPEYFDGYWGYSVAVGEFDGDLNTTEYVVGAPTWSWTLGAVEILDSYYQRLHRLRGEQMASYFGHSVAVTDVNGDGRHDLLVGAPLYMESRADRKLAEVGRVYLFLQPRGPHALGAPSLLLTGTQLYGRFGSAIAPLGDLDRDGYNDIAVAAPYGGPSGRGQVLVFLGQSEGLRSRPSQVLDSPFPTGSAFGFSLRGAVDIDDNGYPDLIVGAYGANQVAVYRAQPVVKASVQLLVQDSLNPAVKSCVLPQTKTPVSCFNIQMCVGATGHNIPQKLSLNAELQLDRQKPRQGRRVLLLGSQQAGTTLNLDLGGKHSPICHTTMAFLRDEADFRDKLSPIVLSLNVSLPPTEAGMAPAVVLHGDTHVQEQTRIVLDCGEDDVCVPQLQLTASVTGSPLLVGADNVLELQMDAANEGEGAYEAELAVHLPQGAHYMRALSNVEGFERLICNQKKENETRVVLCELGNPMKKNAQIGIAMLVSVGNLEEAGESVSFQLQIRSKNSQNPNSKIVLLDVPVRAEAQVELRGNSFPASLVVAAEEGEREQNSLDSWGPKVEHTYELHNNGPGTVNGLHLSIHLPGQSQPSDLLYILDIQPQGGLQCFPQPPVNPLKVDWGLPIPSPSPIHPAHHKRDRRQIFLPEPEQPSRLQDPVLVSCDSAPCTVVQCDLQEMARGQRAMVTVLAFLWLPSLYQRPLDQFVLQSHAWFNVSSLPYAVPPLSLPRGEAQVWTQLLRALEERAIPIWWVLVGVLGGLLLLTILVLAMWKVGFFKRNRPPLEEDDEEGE
- Sequence (P05106 27-788): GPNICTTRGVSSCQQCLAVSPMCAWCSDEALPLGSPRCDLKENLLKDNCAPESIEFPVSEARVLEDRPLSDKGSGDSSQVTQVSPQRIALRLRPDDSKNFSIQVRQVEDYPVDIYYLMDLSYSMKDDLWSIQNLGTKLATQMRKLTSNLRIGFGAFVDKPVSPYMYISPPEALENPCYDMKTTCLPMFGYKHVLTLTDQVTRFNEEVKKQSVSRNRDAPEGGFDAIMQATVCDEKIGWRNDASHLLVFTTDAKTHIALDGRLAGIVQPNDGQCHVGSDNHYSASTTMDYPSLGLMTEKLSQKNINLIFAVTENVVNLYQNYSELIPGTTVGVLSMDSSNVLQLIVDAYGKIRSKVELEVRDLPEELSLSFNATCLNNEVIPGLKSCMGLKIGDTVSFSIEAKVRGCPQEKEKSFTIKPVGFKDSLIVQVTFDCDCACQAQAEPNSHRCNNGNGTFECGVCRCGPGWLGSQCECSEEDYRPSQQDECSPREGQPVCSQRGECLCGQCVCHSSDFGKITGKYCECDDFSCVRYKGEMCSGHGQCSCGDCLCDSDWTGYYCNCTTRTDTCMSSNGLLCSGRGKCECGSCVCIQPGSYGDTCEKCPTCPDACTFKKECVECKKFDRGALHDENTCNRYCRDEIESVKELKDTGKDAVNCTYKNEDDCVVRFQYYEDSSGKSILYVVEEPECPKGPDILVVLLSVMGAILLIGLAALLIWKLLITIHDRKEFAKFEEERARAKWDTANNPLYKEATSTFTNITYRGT
- Assay Comment: Platelet aggregation assay for synthetic echistatin and analogs (chronolog aggregometer)
- Format: cell-based
- Conditions Used: human platelet aggregation; Table 5; read-out: IC₅₀(µM)(95% CONFIDENCE LIMITS)
Bridge positions count the residues as written; N and C are the ends. Square brackets hold non-standard residues; d marks the D form. Ends that are not written are not given here. Met(O) = CS(=O)CC[C@H](N)C(=O)O
Label fulfilled when IC50 < 0.03 µM; otherwise not fulfilled.

For orientation, consider the following solved cases.
H-ECESGPCCRNCKFLKEGTICKRARGDFLDDYCNGKTCDCPRNPHKGPAT-OH (disulfide 2-11, 7-32, 8-37, 20-39) [Example 10, phe 27, leu 28-echistatin] = fulfilled
H-ECESGPCCRNCKFLKEGTICKRARGDDMDDYCNGKTCDCPR-NH2 (disulfide 2-11, 7-32, 8-37, 20-39) [Example 16, (1-41)-echistatin amide] = not fulfilled
H-ECESGPCCRNCKFLKEGTICKRARGDDFDDYCNGKTCDCPRNPHKGPAT-OH (disulfide 2-11, 7-32, 8-37, 20-39) [Example 14, phe 28-echistatin] = not fulfilled
H-ECESGPCCRNCKFLKEGTICKRARGDWMDDYCNGKTCDCPRNPHKGPAT-OH (disulfide 2-11, 7-32, 8-37, 20-39) [Example 11, trp 27-echistatin] = fulfilled
ECESGPCCRNCKFLKEGTICKRARGDD[Met(O)]DDYCNGKTCDCPRNPHKGPAT (disulfide 2-11, 7-32, 8-37, 20-39) [Example 18, met SO 28-echistatin] = not fulfilled
H-ECESGPCCRNCKFLKEGTICKRARGDFMDDYCNGKTCDCPRNPHKGPAT-OH (disulfide 2-11, 7-32, 8-37, 20-39) [Example 9, phe 27-echistatin] = fulfilled
H-ECESGPCCRNCKFLKEGTICKRARGDDMDDYCNGKTCDCPRNP-NH2 (disulfide 2-11, 7-32, 8-37, 20-39) [Example 17, (1-43)-echistatin amide] = not fulfilled
H-ECESGPCCRNCKFLKEGTICKNARGDFLDDYCNGKTCDCPRNPHKGPAT-OH (disulfide 2-11, 7-32, 8-37, 20-39) [Example 15, asn 22, phe 27, leu 28-echistatin] = not fulfilled

# check: IC50 < 0.03 µM for H-ECESGPCCRNCKFLKEGTICKRPRGDFLDDYCNGKTCDCPRNPHKGPAT-OH (disulfide 2-11, 7-32, 8-37, 20-39) [Example 12, pro 23, phe 27, leu 28-echistatin]
fulfilled

These entries and their values trace back to patent EP0338634B1.
